These data points were gathered from paper PMC12888861.

Test system: A. non-baumannii isolates (n = 87)
Experiment: MIC, broth microdilution (EUCAST), A. non-baumannii isolates
Format: cell-based, Acinetobacter spp. (non-baumannii)
Conditions: Acinetobacter, isolate NO-Ab159, Acinetobacter iwoffii; in combinations ETZ fixed at 8 mg/L; read-out: MIC
metricName: MIC

**Q:** Fill in the recorded MIC for this molecule, with A. non-baumannii isolates (n = 87) as test system: C[C@@H](O)[C@H]1C(=O)N2C(C(=O)O)=C(SCCN=CN)C[C@H]12
**A:** ≤ 0.06 µg/mL

**Q:** Next molecule up: C[n+]1ccn(C[C@@]2(C)[C@H](C(=O)[O-])N3C(=O)C[C@H]3S2(=O)=O)n1
**A:** 2 µg/mL

**Q:** And then CC1(C)[C@H](C(=O)O)N2C(=O)C[C@H]2S1(=O)=O , what is it?
**A:** 0.5 µg/mL

**Q:** Similarly, CO/N=C(\C(=O)N[C@@H]1C(=O)N2C(C(=O)[O-])=C(C[N+]3(C)CCCC3)CS[C@H]12)c1csc(N)n1 [cefepime] ?
**A:** 0.5 µg/mL

---

System: A. non-baumannii isolates (n = 87)
Test: MIC, broth microdilution (EUCAST), A. non-baumannii isolates
Format: cell-based, Acinetobacter spp. (non-baumannii)
Conditions: Acinetobacter pittii, isolate NO-Ab82, Acinetobacter pittii; in combinations ETZ fixed at 8 mg/L; read-out: MIC
Answer each item with its documented MIC.
Report as a plain number; the unit µg/mL is understood.

**Q:** Data request, read-out MIC, for CO/N=C(\C(=O)N[C@@H]1C(=O)N2C(C(=O)[O-])=C(C[N+]3(C)CCCC3)CS[C@H]12)c1csc(N)n1 [cefepime]
**A:** 1

**Q:** Param item: C[n+]1ccn(C[C@@]2(C)[C@H](C(=O)[O-])N3C(=O)C[C@H]3S2(=O)=O)n1
**A:** 2

**Q:** What do you have for CC1(C)[C@H](C(=O)O)N2C(=O)C[C@H]2S1(=O)=O ?
**A:** 0.5

---

System: A. non-baumannii isolates (n = 87)
Experiment: MIC, broth microdilution (EUCAST), A. non-baumannii isolates
Type: cell-based, Acinetobacter spp. (non-baumannii)
Details: Acinetobacter; A. non-baumannii isolates (n=87); ETZ fixed 8 mg/L in combinations
Method: The bacterial strains used in this study comprised 208 clinical isolates from the Spanish National Acinetobacter spp. […] The antimicrobial susceptibility of the 208 Acinetobacter spp. isolates was assessed using the broth microdilution method, as described in the European Committee on Antimicrobial Susceptibility Testing (EUCAST) v.15 guidelines (http://www.eucast.org/clinical_breakpoints). […] MICs for enmetazobactam alone were assessed as well. […]
For each record, write down the corresponding MIC90.
Reply numerically in µg/mL, unit not repeated.

**Q:** Which value of MIC90 has been reported for C[n+]1ccn(C[C@@]2(C)[C@H](C(=O)[O-])N3C(=O)C[C@H]3S2(=O)=O)n1 in the records?
**A:** 4

**Q:** Would you mind doing C[C@@H](O)[C@H]1C(=O)N2C(C(=O)O)=C(SCCN=CN)C[C@H]12 as well?
**A:** 0.25

**Q:** Let us now turn to CO/N=C(\C(=O)N[C@@H]1C(=O)N2C(C(=O)[O-])=C(C[N+]3(C)CCCC3)CS[C@H]12)c1csc(N)n1 [cefepime]
**A:** 4

**Q:** Here is the next compound: CC1(C)[C@H](C(=O)O)N2C(=O)C[C@H]2S1(=O)=O
**A:** 2
